# Test system: mouse organs
# assay.protocol: In vivo activity screening in mice: organ mean total flux (p/s) of luciferase activity after injection of F2 LNP pools (Table 6, FIG. 7A-7C)
# measurement.parameters: Mouse 14, dose 0.5 mg/kg, luciferase mRNA
Marks after values point to notes of the source that are not given here.
readout.name: Organ Mean Total Flux Kidney

[
  {
    "molecule": "CCCCC/C=C\\CCOC(=O)CCCCCC(=O)OCC(COC(=O)CCCCCC(=O)OCC/C=C\\CCCCC)(COC(=O)CCC(CCCCCC)OC(=O)NCCN1CCCC1)COC(=O)CC12CC3CC(CC(C3)C1)C2 (stereo not drawn)",
    "Organ Mean Total Flux Kidney": "3.6 p/s (×10^6)"
  },
  {
    "molecule": "CCCCC/C=C\\CCOC(=O)CCCCCCC(=O)OCC(COC(=O)CCCCCCC(=O)OCC/C=C\\CCCCC)(COC(=O)CCCCCCC(=O)OCC/C=C\\CCCCC)COC(=O)CCC(CCCCCC)OC(=O)NCCN1CCCC1 (stereo not drawn)",
    "Organ Mean Total Flux Kidney": "3.7 p/s (×10^6)"
  }
]

Turning now to a further record.
Task: Endpoint output: Organ Mean Total Flux Kidney of CCCCC/C=C\CCOC(=O)CCCCCC(=O)OCC(COC(=O)CCCCC)(COC(=O)CCCCCC(=O)OCC/C=C\CCCCC)COC(=O)CCC(CCCCCC)OC(=O)NCCN1CCCC1 (stereo not drawn) . Value?
Output: 4.1 p/s (×10^6)
